- Tested on: HOP-92 NSCLC
- assay info: NCI tumour cell line growth inhibition, 48 h
TGI below 40 µM gives Criterion not met; TGI at or above it gives Criterion met.

Look over these answered cases.
N#CC(NNC(=O)Cc1ccccc1)c1c(O)ccc2ccccc12 (stereo not given) ... Criterion met
COc1ccc(C(=C(Cl)c2ccccc2)c2ccc(OC)cc2)cc1 ... Criterion met

Tell me whether TGI is at least 40 µM here: OC[C@H]1CCCC1O (stereo not given in full) Criterion met

###

- Test system: HOP-62 NSCLC
- assay info: NCI tumour cell line growth inhibition, 48 h
assay metric: GI50

Clc1ccc(C2=Nn3c(COc4ccccc4Cl)nnc3SC2)c(Cl)c1 ... 24.3 µM
COc1nc2ccccc2cc1-c1nc2c(cnn2-c2ccc(Br)cc2)c(=O)[nH]1 ... 0.0363 µM
COc1cc2ncnc(Nc3ccc(C)c(O)c3)c2cc1OC ... > 25 µM
NS(=O)(=O)c1ccc(N=Nc2c(O)[nH]c3ccc(-c4cnco4)cc23)cc1 ... > 25 µM

Identify measured GI50 corresponding to "COC(=O)C1=CNC=C(C(=O)OC)C1C1=CC(=O)C(C)=CC1=O" 14.8 µM

###

compounds and their reported TGI
- Tested on: HCT-15 colon
- assay info: NCI tumour cell line growth inhibition, 48 h
// units = µM; emit number, no label

For orientation, consider the following solved cases.
CC(C)[Si](OC1=C(C(=O)N(C)c2cccc(Cl)c2)CCCC1)(C(C)C)C(C)C ... 28.4
COC1=C(OC)C(=O)C(Cc2c(C)nc3sc(C)cn23)=C(C)C1=O ... 96.4
C[C@@]12CC=C3c4nc(Nc5cccc(O)c5)sc4CC[C@]3(C)[C@H]1CC[C@]1(C)C(=O)CC[C@@H]21 ... 3.33
CC(C)n1nc(-c2cc3cc(O)ccc3[nH]2)c2c(N)ncnc21 ... 13.9
CC(C)(C)c1cc(C(C)(C)C)cc(S(=O)(=O)Nc2cc3ccccc3cc2C(=O)NCCN)c1 ... 3.04
CCN(CC)C(=S)N/N=C(/C)c1cccc(/C(C)=N\NC(=S)N(CC)CC)n1 ... 17.1
CCOC(=O)c1cc(C(O)P2(=O)N(CC(C)(C)C)[C@@H]3CCCC[C@H]3N2CC(C)(C)C)cn1C(=O)OC(C)(C)C (stereo not given in full) ... 36

Entry "O=C(N/N=C\c1cccc2c([N+](=O)[O-])cccc12)Nc1ccccc1" needs its TGI filled in; supply it. 25.5

###

Each item that follows carries a reported TGI.
- Tested on: PC-3 prostate
- assay info: NCI tumour cell line growth inhibition, 48 h

Use the examples below as a reference point.
O=C(NI1OC(=O)c2ccccc21)c1ccc(Cl)cc1 ... > 100 µM
C[C@]12CCC(=O)O[C@H]1CCCCO2 ... > 100 µM
CC(C)(C)OC(=O)NC(Cc1ccc(OCc2ccccc2)cn1)C(=O)N1CCCCC1 (configuration not stated) ... 55.2 µM
COc1cc(-c2ccc3c(c2)NC(=O)/C3=C\c2ccc[nH]2)ccc1O ... > 50 µM
C=C1C(=O)O[C@H]2[C@H]1CC/C(COC(=O)C(=O)c1cn(Cc3ccccc3)c3ccccc13)=C\CC[C@@]1(C)O[C@@H]21 ... 4.35 µM
COC1=C(C)C(=O)c2c(c(COC(N)=O)c3n2CC2C3N2C)C1=O (configuration not stated) ... 0.244 µM
O=C1C(CN2CCCCC2)CCC1CN1CCCCC1 (configuration not stated) ... > 57.6 µM
NP(=O)(Oc1c2occc2cc2ccc(=O)oc12)N(CCCl)CCCl (configuration not stated) ... > 100 µM

Supply measured TGI of "O=c1[nH]nc(-c2ccccc2)c2[nH]c3c4ccccc4ccc3c12" in your reply. > 100 µM

Identify measured TGI associated with O=C1CC(=Nc2ccc(Cl)cc2)C(c2ccccc2)N1c1ccccc1 (configuration not stated) > 100 µM

###

The following compounds are listed with their measured TGI values.
- Tested on: NCI-H522 lung
- assay info: NCI tumour cell line growth inhibition, 48 h
Expressed in µM, but write only the number.

Some solved cases for reference:
CCOC(=O)C1=C(C)N(NC(=O)Nc2ccccc2)C(=O)C1=P(c1ccccc1)(c1ccccc1)c1ccccc1 ... 63.8
CC(C)(C)c1cc(C(C)(C)C)cc(S(=O)(=O)Nc2cc3ccccc3cc2C(=O)NCCN)c1 ... 3.72
O=c1cc(-c2ccc(F)cc2)[nH]c2ncc(Cl)cc12 ... 80.4
O=C(NI1OC(=O)c2ccccc21)c1ccc(Cl)cc1 ... 35.2

Consider the record given below.
Provide measured TGI value, entry: "CC(=O)[O-].CCN(CC)c1ccc(C=NCCN=Cc2ccc(N(CC)CC)cc2[O-])c([O-])c1.[Mn+3]" 61.9

###

- Test system: SF-268 CNS
- assay info: NCI tumour cell line growth inhibition, 48 h; in the data active = GI50 below about 0.43 µM; inactive = the rest
Outcomes you can answer with include only these: True = active, False = inactive

Sample answers from the record:
COc1cc(-c2ccc3c(c2)NC(=O)/C3=C\c2ccc[nH]2)ccc1O ... True
COC(=O)C1=CNC=C(C(=O)OC)C1C1=CC(=O)C(C)=CC1=O ... False
Clc1ccc(C2=Nn3c(COc4ccccc4Cl)nnc3SC2)c(Cl)c1 ... False
Cc1cc(C(=O)Nc2ncc(Cc3cccc(C(F)(F)F)c3)s2)c2ccccc2n1 ... False
C[C@@]12CC=C3c4nc(Nc5cccc(O)c5)sc4CC[C@]3(C)[C@H]1CC[C@]1(C)C(=O)CC[C@@H]21 ... False
C=C1C(=O)O[C@H]2[C@H]1CC/C(COC(=O)C(=O)c1cn(Cc3ccccc3)c3ccccc13)=C\CC[C@@]1(C)O[C@@H]21 ... False

How was "NS(=O)(=O)c1ccc(N=Nc2c(O)[nH]c3ccc(-c4cnco4)cc23)cc1" classified in this test? False

Dear all, I need the recorded test outcome for COc1cccc2c1C(=O)c1c(O)c3c(c(O)c1C2=O)C[C@@](O)(C(C)=O)C[C@@H]3OC1OC(C)C(O)C(N)C1Br (some centres undefined) , thank you. True

Kindly provide the recorded test outcome for the following compound: "COC1=CC(=O)c2nc(-c3cccc(C)n3)[nH]c2C1=O" False

###

Form field: TGI (one value per entry).
- System: ACHN renal
- assay info: NCI tumour cell line growth inhibition, 48 h

Here's what some known entries look like.
O=C(Cc1ccccc1)NN1C(=O)C(Cl)C1c1cc(Br)ccc1O (stereo not given) ... > 100 µM
NC(N)=NCCC[C@H](N)C(=O)NCC(=O)N[C@@H](CC(=O)O)c1ncc(NC(=O)C(F)(F)F)o1 ... > 25 µM
CCOC(=O)C1=C(C)N(NC(=O)Nc2ccccc2)C(=O)C1=P(c1ccccc1)(c1ccccc1)c1ccccc1 ... > 100 µM

Query TGI for Cc1ccc2c(c1)C(C(=O)N[C@@H]1C(=O)N3[C@@H]1SC(C)(C)[C@@H]3C(=O)O)OCCC2 (stereo not given in full) > 100 µM

Please give the documented TGI of "COC1=CC(=O)c2nc(-c3cccc(C)n3)[nH]c2C1=O" 70.3 µM

###

- Tested on: CAKI-1 renal
- assay info: NCI tumour cell line growth inhibition, 48 h; in the data active = GI50 below about 0.43 µM; inactive = the rest
Pick one: TRUE for active, FALSE for inactive

COc1cc2c(c(OC)c1OC)-c1ccc(OC)c(=O)cc1[C@@H](NC(=O)c1ccccc1)CC2 ... TRUE
CC(C)(C)c1cc(C(C)(C)C)cc(S(=O)(=O)Nc2cc3ccccc3cc2C(=O)NCCN)c1 ... FALSE
Cc1cc(S(=O)(=O)Nc2nnc(-c3ccccc3)c(-c3ccccc3)n2)c(SCC(N)=O)cc1Cl ... FALSE
COc1ccc(Nc2c3ccccc3nc3occc23)cc1 ... FALSE
CN(C)C(=O)c1cc2cnc(Nc3ccc(-c4csc5c(=S)cc(N6CCOCC6)oc45)cc3)nc2n1C1CCCC1 ... TRUE

Please share the test call associated with "COc1ccc(Cn2cc3c(c2-c2ccccc2)CC(C)(C)c2cnoc2-3)cc1" . FALSE

Which outcome was assigned to "CCOC(=O)c1c(C)n(Cc2ccc(Cl)cc2Cl)c2c1c(CN(C)C)c(O)c1[nH]cnc12" in this test? FALSE

Outcome logged for "COc1ccccc1CNCCCN1C(=O)c2ccc3c4c(ccc(c24)C1=O)C(=O)N(CCCOCCCCOCCCN)C3=O" in this assay: FALSE

Please indicate how the test categorized "CN1CCN(CCCOc2ccc3nc(Nc4ccc(Cl)c(C(F)(F)F)c4)ccc3c2)CC1" . FALSE

###

- System: LOX IMVI melanoma
- assay info: NCI tumour cell line growth inhibition, 48 h
assay metric: TGI

Solved entries (count: 6):
C=C1C(=O)O[C@@H]2/C=C(\C)CC/C=C(/COC(C)=O)C[C@@H](OC(C)=O)[C@@H]12 ... 13.1 µM
C(=Nc1ccc(-c2nc3ccccc3[nH]2)cc1)c1cccs1 ... > 100 µM
C=CC(CCc1ccc(C(=O)OCC)cc1)c1c(N)nc(N)[nH]c1=O (stereo not given) ... > 100 µM
COC(=O)/C(=N\Nc1nnc(C)n1N)C(C#N)c1ccc(Cl)cc1 (stereo not given) ... > 100 µM
CC(C)(C)c1ccc2c(c1)S(=O)(=O)Nc1ccccc1NS(=O)(=O)c1cc(C(C)(C)C)ccc1OCCOCCOCCO2 ... > 100 µM
Cc1ccc(/C=C2\CCCc3ccccc3C2=O)cc1 ... 30 µM

Let me know recorded TGI for "COc1ccccc1CCc1cc(OC)c(OC)c(OC)c1" , thanks. > 100 µM

Return the recorded TGI value; entry: CC(C)(C)OC(=O)NC(Cc1ccc(OCc2ccccc2)cn1)C(=O)N1CCCCC1 (stereo not given) 71 µM

# return recorded TGI for input "NN/C(=N\S(=O)(=O)c1cc2ccccc2s1)Nc1ccc(Cl)cc1" 38.6 µM

Look up and report measured TGI for this entry: "CS/C(N)=N\NC(=O)CCC(=O)Nc1ccccc1C(F)(F)F" > 100 µM

Identify measured TGI corresponding to "Nc1nc(N)c2ncn(-c3ccc(Cl)cc3)c2n1" > 100 µM

Output measured TGI for this item: CCOc1cn(C2CC(O)C(CO)O2)c(=O)[nH]c1=O (stereo not given) > 100 µM

State its TGI: "C=C1C(=O)O[C@H]2[C@H]1CC/C(COC(=O)C(=O)c1cn(Cc3ccccc3)c3ccccc13)=C\CC[C@@]1(C)O[C@@H]21" 2.57 µM

Specify reported TGI for the compound shown: "COc1cc2nc3cc([N+](=O)[O-])ccc3c(NCCCNCCO)c2cc1OC" 0.664 µM

Kindly indicate its recorded TGI. Item: COc1ccc(C2OC[C@H]3O[C@@H](OCc4ccccc4)[C@H](O)[C@@H](O)[C@@H]3O2)cc1 (stereo not given in full) > 100 µM
